Test system: C. albicans
Test: antifungal screening test of analogs, C. albicans (CA)
Assay type: cell-based
Settings: Candida albicans
METRIC: MIC

Q: Read the entry CCCCCCCCCC(=O)OC[C@@H](O)COP(=O)([O-])OCC[N+](C)(C)C and write its reported MIC.
Result: > 500 µg/mL

Q: Identify MIC associated with the compound CCCCCCCC/C=C\CCCCCCCC(=O)OC[C@@H](O)COP(=O)(O)OCCN
Result: > 100 µg/mL

Q: Annotate the compound CCCCCCCCCCCCCCCCCC(=O)OC[C@@H](O)COP(=O)([O-])OCC[N+](C)(C)C with its measured MIC.
Result: > 250 µg/mL

---

Tested on: A. fumigatus
Test: antifungal screening test of analogs, A. fumigatus (AF)
Type: cell-based
Settings: Aspergillus fumigatus, read-out: Partial inhibition
Procedure: The analog compounds were tested for their activity against C. albicans, C. neoformans, A. fumigatus and T. rubrum. Partial inhibition of the fungus of between 25 to 75% was measured along with the total inhibition (MIC) by these anolog compounds. A description of the partial inhibition measurement can be found in R. L. Stiller, et al The Journal of Infectious Diseases, 147, No. 6 (1983). The structure of these analog compounds is as follows. […]
METRIC: IC (25-75%)

Q: Identify measured IC (25-75%) corresponding to CCCCCCCCCC(=O)OC[C@@H](O)COP(=O)([O-])OCC[N+](C)(C)C
Result: > 500 µg/mL

Q: Tell us which IC (25-75%) value is on record for CCCCCCCC/C=C\CCCCCCCC(=O)OC[C@@H](O)COP(=O)(O)OCCN
Result: > 100 µg/mL

Q: Specify reported IC (25-75%) for the compound shown: CCCCCCCCCCCCCCCCCC(=O)OC[C@@H](O)COP(=O)([O-])OCC[N+](C)(C)C
Result: > 250 µg/mL

---

System: T. rubrum
Assay: antifungal screening test of analogs, T. rubrum (TR)
Type: cell-based
Settings: Trichophyton rubrum
METRIC: MIC

Q: Give me measured MIC, please, for this compound: CCCCCCCC/C=C\CCCCCCCC(=O)OC[C@@H](O)COP(=O)(O)OCCN
Result: > 100 µg/mL

Q: Report measured MIC; entry is CCCCCCCCCCCCCCCCCC(=O)OC[C@@H](O)COP(=O)([O-])OCC[N+](C)(C)C
Result: > 250 µg/mL

Q: Item CCCCCCCCCC(=O)OC[C@@H](O)COP(=O)([O-])OCC[N+](C)(C)C : provide MIC
Result: > 500 µg/mL

All values here come from patent US5681829A.
